# particulars: in water, 293.15 K
outcome.measure: solubility (mole fraction)
One number for each entry.

Given the molecule Nc1ccc(S(=O)(=O)Nc2ncccn2)cc1 , what is its reported solubility (mole fraction)?
3.96e-06

----------
# particulars: in NMP, 313.15 K
outcome.measure: solubility (mole fraction)
Numbers only.

Dear colleague, I am looking for the recorded solubility (mole fraction) of the following molecule: Nc1ccc(S(=O)(=O)Nc2ncccn2)cc1
0.137
